# Assayed System: EGFR (Homo sapiens)
# Construct: host or cells: A431
# Protocol Details: EGFR in-cell Western (ICW) screening protocol (EGFR inhibition assay)
# Assay type: cell-based
# Parameters: unit not given here
# Measurement Parameters: ICW assay, run 2
# Procedure: The following example describes general EGFR in-cell Western (ICW) screening protocol. Methods are according to Chen et al. (2005) Analytical Biochemistry 338, 136-142 (incorporated herein by reference), except as otherwise noted. Cell Plates: A431 cells (ATCC # CRL-1555) were grown in Dulbecco's Modified Eagle Medium (DMEM; ATCC #30-2002) supplemented with 10% fetal bovine serum, 105 units/ml pen/strep (Invitrogen #15140155) and 2.1 mM L-glutamine (ATCC #30-2214). […]
Structures can show the parent of a compound that is named as a salt.
Provide the reported ICW 2 of each item.
Give bare numbers.

Compound	ICW 2
CCCc1cc(=O)[nH]c(Nc2nc(C)c3cc(C)c(C)cc3n2)n1 [12673 + TFA]	60.90
C=CCc1c(C)nc(Nc2nc(C)c3cccc(C)c3n2)[nH]c1=O [12607 + TFA]	26.85
CCCc1c(C)nc(Nc2nc(C)c3cccc(OC)c3n2)[nH]c1=O [11773 + TFA]	23.30
CCCCc1c(C)nc(Nc2nc(C)c3ccc(C)cc3n2)[nH]c1=O [12776 + TFA]	29.30
Cc1nc(Nc2nc(CSc3ccccn3)cc(=O)[nH]2)nc2ccccc12 [12740 + TFA]	27.91
Cc1cccc(Cc2c(C)nc(Nc3nc(C)c4cccc(C)c4n3)[nH]c2=O)c1 [11754 + TFA]	25.85
Cc1ccc2nc(Nc3nc(CCC(C)C)cc(=O)[nH]3)nc(C)c2c1 [11795 + TFA]	31.81
Cc1nc(Nc2nc(=O)c3c([nH]2)CCCC3)nc2c(C)cccc12 [11436 + TFA]	60.14

Could you now consider this next compound?
Record request: ICW 2 value, item Cc1cc(C)c2nc(Nc3nc(C)cc(=O)[nH]3)nc(C)c2c1 [11607 + TFA]
41.73

====

# Assayed System: EGFR (Homo sapiens, UniProt P00533)
# Construct: host or cells: A431
# Sequence (P00533 25-1210): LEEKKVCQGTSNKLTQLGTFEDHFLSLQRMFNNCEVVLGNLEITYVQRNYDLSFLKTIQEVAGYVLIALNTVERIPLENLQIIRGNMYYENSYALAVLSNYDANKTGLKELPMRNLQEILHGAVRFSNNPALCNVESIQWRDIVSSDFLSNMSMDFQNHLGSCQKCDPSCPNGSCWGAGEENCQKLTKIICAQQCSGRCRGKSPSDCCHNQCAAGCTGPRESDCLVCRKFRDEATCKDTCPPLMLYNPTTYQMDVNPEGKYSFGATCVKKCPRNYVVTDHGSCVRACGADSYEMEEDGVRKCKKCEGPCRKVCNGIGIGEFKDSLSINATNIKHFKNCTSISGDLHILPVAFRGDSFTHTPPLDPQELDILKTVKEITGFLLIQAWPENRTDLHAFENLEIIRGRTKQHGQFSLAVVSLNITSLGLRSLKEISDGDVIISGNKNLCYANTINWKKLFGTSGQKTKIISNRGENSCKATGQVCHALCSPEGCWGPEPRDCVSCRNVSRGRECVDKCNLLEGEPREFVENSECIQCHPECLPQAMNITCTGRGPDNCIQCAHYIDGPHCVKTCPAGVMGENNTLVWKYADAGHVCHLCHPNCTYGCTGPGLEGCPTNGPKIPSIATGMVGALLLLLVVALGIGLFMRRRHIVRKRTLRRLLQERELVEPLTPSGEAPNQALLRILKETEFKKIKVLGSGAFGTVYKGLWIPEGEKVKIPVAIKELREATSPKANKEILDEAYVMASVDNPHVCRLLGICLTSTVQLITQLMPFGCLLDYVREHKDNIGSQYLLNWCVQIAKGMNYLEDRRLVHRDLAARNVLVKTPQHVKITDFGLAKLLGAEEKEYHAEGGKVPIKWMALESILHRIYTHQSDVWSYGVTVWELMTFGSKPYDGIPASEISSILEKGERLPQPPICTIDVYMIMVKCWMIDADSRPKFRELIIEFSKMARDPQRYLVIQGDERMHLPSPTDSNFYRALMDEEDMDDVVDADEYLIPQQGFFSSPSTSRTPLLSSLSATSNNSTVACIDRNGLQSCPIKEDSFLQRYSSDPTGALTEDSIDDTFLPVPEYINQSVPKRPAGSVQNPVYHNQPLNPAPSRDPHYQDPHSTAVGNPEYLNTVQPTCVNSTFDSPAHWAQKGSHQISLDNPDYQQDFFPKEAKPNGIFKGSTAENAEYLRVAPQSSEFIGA
# Protocol Details: EGFR in-cell Western (ICW) screening protocol (EGFR inhibition assay)
# Assay type: cell-based
# Measurement Parameters: Table 11; % Inhibition of EGF dependent EGFR phosphorylation in A431 cells; compound 125 μM in assay
Output yes (1) for ICW Screen not less than 40; output no (0) otherwise.

Below are worked cases with known answers.
Molecule	Assayed System	Qualitative Label
O=c1cc(CN2CCN(Cc3ccccc3)CC2)c2cc3c(cc2o1)OCO3	EGFR (Homo sapiens, UniProt P00533)	yes (1)
CCc1cc2c(CN3CCN(Cc4ccc5c(c4)OCO5)CC3)cc(=O)oc2cc1O	EGFR (Homo sapiens, UniProt P00533)	yes (1)
Cc1c(O)ccc2c(CN3CCN(Cc4ccc5c(c4)OCO5)CC3)cc(=O)oc12 [AD4-10637]	EGFR (Homo sapiens, UniProt P00533)	no (0)
O=c1cc(CN2CCN(C(c3ccccc3)c3ccccc3)CC2)c2ccc(O)c(O)c2o1	EGFR (Homo sapiens, UniProt P00533)	yes (1)
O=c1cc(CN2CCN(Cc3ccccc3)CC2)c2cc(Cl)c(O)cc2o1	EGFR (Homo sapiens, UniProt P00533)	no (0)

Consider the record given below.
Does ICW Screen meet or surpass 40 for Cc1ccc2c(CN3CCN(Cc4ccc5c(c4)OCO5)CC3)cc(=O)oc2c1C ?
no (0)

====

# Test system: MDBK line
# Protocol Details: MTT Cell Proliferation Assay, MDBK cells
# Type: cell-based, bovine
# Measurement Parameters: Bos taurus, MDBK, second value of 'a/b (c)'; taken as MDBK cells; read-out: MTT Screen, second value of cell
So basically, if IC50 comes in under 40 µM it's y, and if it's 40 µM or more it's n.

Below are worked cases with known answers.
Molecule	Qualitative Label
COc1ccc(NS(=O)(=O)c2ccc(NC(=S)NC(=O)CC(C)C)cc2)cc1	y
CCOc1ccc(NS(=O)(=O)c2ccc(NC(=S)NC(=O)CC)cc2)cc1	y
COc1cc(NS(=O)(=O)c2ccc(NC(=S)NC(=O)/C=C/c3ccc(C(C)C)cc3)cc2)nc(OC)n1	y
Cc1cc(Cl)ccc1OCC(=O)NC(=S)Nc1ccc(S(=O)(=O)N2CCCCC2)cc1	y
O=C(NC(=S)Nc1ccc(S(=O)(=O)Nc2ccccc2)cc1)C1CC1	y

Consider the record given below.
Hi there! Is IC50 for O=C(CCc1ccco1)NC(=S)Nc1ccc(S(=O)(=O)NCCc2ccccc2)cc1 below 40 µM, do you know?
y

====

# Assayed System: EGFR (Homo sapiens, UniProt P00533)
# Construct: host or cells: A431
# Protocol Details: EGFR in-cell Western (ICW) screening protocol (EGFR inhibition assay)
# Assay type: cell-based
Output condition met for ICW Screen (ICW Inhibition) not less than 30; output condition not met otherwise.

Below are worked cases with known answers.
Compound	Assayed System	Qualitative Label
COc1ccc(CC(=O)NC(=S)Nc2ccc(S(=O)(=O)NCCc3ccccc3)cc2)cc1 [AD4-10622]	EGFR (Homo sapiens, UniProt P00533)	condition not met
Cc1ccc(NS(=O)(=O)c2ccc(NC(=S)NC(=O)COc3ccc(Cl)cc3C)cc2)c(C)c1 [AD4-12152]	EGFR (Homo sapiens, UniProt P00533)	condition met
CC1CCN(S(=O)(=O)c2ccc(NC(=S)NC(=O)C3CC3)cc2)CC1 [AD4-12286]	EGFR (Homo sapiens, UniProt P00533)	condition not met
CC(=O)NS(=O)(=O)c1ccc(NC(=S)NC(=O)Cc2cccc3ccccc23)cc1 [AD4-12071]	EGFR (Homo sapiens, UniProt P00533)	condition not met
COc1cc(NS(=O)(=O)c2ccc(NC(=S)NC(=O)/C=C/c3ccc(C(C)C)cc3)cc2)nc(OC)n1 [AD4-11638]	EGFR (Homo sapiens, UniProt P00533)	condition met

Does ICW Screen (ICW Inhibition) meet or surpass 30 for Cc1cc(NS(=O)(=O)c2ccc(NC(=S)NC(=O)/C=C/c3ccccc3)cc2)no1 [AD4-11885] ?
condition met

And the next one, CC(C)CC(=O)NC(=S)Nc1ccc(S(=O)(=O)Nc2ccccc2)cc1 [AD4-11975] ?
condition met

And the next one, COc1ccc(NS(=O)(=O)c2ccc(NC(=S)NC(=O)C3CCCC3)cc2)cc1 [AD4-11523] ?
condition not met

And the next one, O=C(NC(=S)Nc1ccc(S(=O)(=O)N2CCCCC2)cc1)C1CCC1 [AD4-11421] ?
condition met

And the next one, Cc1ccc(NS(=O)(=O)c2ccc(NC(=S)NC(=O)CCc3ccccc3)cc2)cc1C [AD4-11419] ?
condition met

And the next one, Cc1ccccc1C(=O)NC(=S)Nc1ccc(S(=O)(=O)Nc2ccccc2)cc1 [AD4-10706] ?
condition met

And the next one, Cc1ccc(NS(=O)(=O)c2ccc(NC(=S)NC(=O)C3CCC3)cc2)cc1C [AD4-11422] ?
condition met

And the next one, Cc1ccc(NS(=O)(=O)c2ccc(NC(=S)NC(=O)CC(C)C)cc2)c(C)c1 [AD4-12010] ?
condition met

And the next one, Cc1ccc(NS(=O)(=O)c2ccc(NC(=S)NC(=O)C3CCC3)cc2)cc1C [AD4-12175] ?
condition met

====

# Assayed System: EGFR (Homo sapiens, UniProt P00533)
# Construct: host or cells: A431
# Protocol Details: EGFR in-cell Western (ICW) screening protocol (EGFR inhibition assay)
# Format: cell-based
# Set-up: unit not given here
# Measurement Parameters: ICW assay, average of runs 1 and 2
Counter-ions that a name gives are not always drawn.
Readout Label: ICW Avg
One number for each entry.

Compound	ICW Avg
CCOc1ccc2nc(Nc3nc(=O)c(Cc4ccc(C)cc4)c(C)[nH]3)nc(C)c2c1	37.95

Respectfully, I request ICW Avg for each entry included below.
1. CCCc1cc(=O)[nH]c(Nc2nc(C)c3cc(C)c(C)cc3n2)n1 [12673 + TFA]
2. COc1cccc2c(C)nc(Nc3nc(C)c(C)c(=O)[nH]3)nc12 [compound 12615]
3. Cc1ccc2c(C)nc(Nc3nc(CSc4nnc(C)s4)cc(=O)[nH]3)nc2c1

1: 52.80; 2: 29.24; 3: 25.25

====

# Assayed System: EGFR (Homo sapiens, UniProt P00533)
# Construct: host or cells: A431
# Protocol Details: EGFR in-cell Western (ICW) screening protocol (EGFR inhibition assay)
# Type: cell-based
# Measurement Parameters: Table 10; % Inhibition of EGF dependent EGFR phosphorylation in A431 cells; compound 125 μM in assay
Output MET for ICW assay not less than 30; output NOT MET otherwise.

Below are worked cases with known answers.
Compound	Assayed System	Qualitative Label
O=S(=O)(Nc1ccccc1)c1ccc(NC(=S)Nc2cccc(C(F)(F)F)c2)cc1	EGFR (Homo sapiens, UniProt P00533)	MET
CC(=O)c1cccc(NC(=S)Nc2ccc(NS(=O)(=O)c3ccc(C)cc3)cc2)c1	EGFR (Homo sapiens, UniProt P00533)	NOT MET
COc1ccc(NC(=S)Nc2ccc(S(=O)(=O)Nc3ccc(Cl)c(Cl)c3)cc2)cc1OC [AD4-12246]	EGFR (Homo sapiens, UniProt P00533)	MET
Cc1cc(C)cc(NS(=O)(=O)c2ccc(NC(=S)Nc3ccccc3)cc2)c1	EGFR (Homo sapiens, UniProt P00533)	MET

Does ICW assay meet or surpass 30 for Cc1cccc(NC(=S)Nc2ccc(S(=O)(=O)Nc3ccc(Cl)c(Cl)c3)cc2)c1 ?
MET
